As shown below, each of these compounds has a reported PAI-1 activity % value.
Target: human PAI-1 (Homo sapiens)
Assay: PAI-1 inhibitory activity, t-PA with Spectrozyme t-PA chromogenic substrate (Reference Experimental Example 2)
Format: biochemical
Set-up: purchased Molecular Innovations, Inc. (USA)
Details: compound 10 μm (head); system without compound after 120 minutes = 100%
Provide only the numeric value, understood in %.

Q: I'd like to know its PAI-1 activity %. The compound in question is Cn1c(C(=O)Nc2ccc(Cl)cc2C(=O)O)cc2cc(Br)ccc21
Ans: 1.8

Q: Please do the same for O=C(COc1ccccc1-c1ccccc1)Nc1ccc(-c2ccoc2)cc1C(=O)O as well.
Ans: 0.4

Q: Please do the same for O=C(Nc1ccc(Cl)cc1C(=O)[O-])c1cccc(-c2ccncc2)c1.[Na+] as well.
Ans: 28.5

Q: Please do the same for O=C(Nc1ccc(Cl)cc1C(=O)[O-])c1cccc(-c2cccc3cccnc23)c1.[Na+] as well.
Ans: 2.1

###

As shown below, each of these compounds has a reported PAI-1 activity % value.
Target: human PAI-1 (Homo sapiens)
Assay: PAI-1 inhibitory activity, t-PA with Spectrozyme t-PA chromogenic substrate (Reference Experimental Example 2)
Assay type: biochemical
Design: purchased Molecular Innovations, Inc. (USA)
Details: Tables 5 to 7, first value column; head prints no concentration
Provide only the numeric value, understood in %.

# mol, PAI-1 activity % [%]
records = [
    ("O=C(Nc1ccc(Cl)cc1C(=O)[O-])c1cccc(OCc2ccc3ccccc3n2)c1.[Na+]", 0.3),
    ("O=C(Nc1ccc(C2=CCCCC2)cc1C(=O)O)c1ccc(C2CCCCC2)cc1", 0.0),
    ("O=C(/C=C(/Cl)C1CCCCC1)Nc1ccc(Cl)cc1C(=O)O", 16.7),
]

# input for lookup
Q: API: value(readout= PAI-1 activity %, system= human PAI-1 (Homo sapiens), query= O=C(/C=C/c1cccc(-c2cccnc2)c1)Nc1ccc(Cl)cc1C(=O)[O-].[Na+] )
Ans: 34.2

###

Target: human PAI-1 (Homo sapiens, UniProt P05121)
Sequence (P05121 24-402): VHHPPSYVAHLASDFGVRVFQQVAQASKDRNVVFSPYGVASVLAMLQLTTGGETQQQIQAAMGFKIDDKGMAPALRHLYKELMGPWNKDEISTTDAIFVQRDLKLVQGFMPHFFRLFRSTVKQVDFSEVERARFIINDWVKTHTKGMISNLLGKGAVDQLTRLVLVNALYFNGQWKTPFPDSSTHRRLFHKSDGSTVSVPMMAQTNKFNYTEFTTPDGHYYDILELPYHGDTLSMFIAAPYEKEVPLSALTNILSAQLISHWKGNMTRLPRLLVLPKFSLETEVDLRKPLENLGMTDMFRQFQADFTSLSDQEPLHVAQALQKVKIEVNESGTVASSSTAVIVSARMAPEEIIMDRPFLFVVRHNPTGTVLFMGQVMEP
Test: PAI-1 inhibitory activity, t-PA with Spectrozyme t-PA chromogenic substrate (Reference Experimental Example 2)
Type: biochemical
Design: purchased Molecular Innovations, Inc. (USA)
Conditions: compound 25 μm (head); system without compound after 120 minutes = 100%
measured property: PAI-1 activity %

Q: I'd like to know its PAI-1 activity %. The compound in question is O=C(Nc1ccc(Cl)cc1C(=O)O)c1cccc(-c2cccc3ccccc23)c1
Ans: 0.0%

Q: Please do the same for O=C(Nc1ccc(Cl)cc1C(=O)[O-])c1cccc(-c2cnc3ccccc3c2)c1.[Na+] as well.
Ans: 21.3%

Q: Please do the same for O=C(COc1ccc(C23CC4CC(CC(C4)C2)C3)cc1)Nc1ccc(Cl)cc1C(=O)O as well.
Ans: 10.0%

Q: Please do the same for O=C(Nc1ccc(Cl)cc1C(=O)[O-])c1cccc(-c2cccc3cccnc23)c1.[Na+] as well.
Ans: 2.4%

Q: Please do the same for O=C(O)c1cc(Cl)ccc1NC(=O)C1(c2cccc(-c3ccoc3)c2)CC1 as well.
Ans: 96.8%

Q: Please do the same for O=C(Nc1ccc(Cl)cc1C(=O)O)c1ccc(C2=CCOCC2)cc1 [Example 32] as well.
Ans: 94.4%

Q: Please do the same for Cn1c(C(=O)Nc2ccc(Cl)cc2C(=O)O)cc2cc(Br)ccc21 as well.
Ans: 97.3%

Q: Please do the same for O=C(Nc1ccc(Cl)cc1C(=O)[O-])c1cccc(-c2cccc3ncccc23)c1.[Na+] as well.
Ans: 71.7%

These measurements were taken from patent US20220340665A1.
